- Species: Rattus norvegicus
- run-description: Open TG-GATES - Regimen: Daily Repeat
- Type: toxicity, organism-based, Sprague-Dawley
- Parameters: regimen Daily Repeat, gender Male, age 6 weeks
- measurement-setup: in vivo, po, 100 mg/kg, […], tissue Plasma, route gavage, dose level Low, time 14 day
measured-endpoint: Ca (mg/dL)
Supply the numeric figure in mg/dL, leaving out any unit text.

[
  {
    "structure-notation": "CCOc1ccc(NC(C)=O)cc1",
    "Ca (mg/dL)": 10.9
  },
  {
    "structure-notation": "O=C(OC[C@H]1O[C@@H](OC(=O)c2cc(O)c(O)c(OC(=O)c3cc(O)c(O)c(O)c3)c2)[C@H](OC(=O)c2cc(O)c(O)c(OC(=O)c3cc(O)c(O)c(O)c3)c2)[C@@H](OC(=O)c2cc(O)c(O)c(OC(=O)c3cc(O)c(O)c(O)c3)c2)[C@@H]1OC(=O)c1cc(O)c(O)c(OC(=O)c2cc(O)c(O)c(O)c2)c1)c1cc(O)c(O)c(OC(=O)c2cc(O)c(O)c(O)c2)c1",
    "Ca (mg/dL)": 10.9
  },
  {
    "structure-notation": "CN/C(=N/CCSCc1nc[nH]c1C)NC#N",
    "Ca (mg/dL)": 10.5
  },
  {
    "structure-notation": "COC(=O)C1=C(C)NC(C)=C(C(=O)OC)C1c1ccccc1[N+](=O)[O-]",
    "Ca (mg/dL)": 11
  }
]

Reported Ca, compound Cc1nnc2n1-c1ccc(Cl)cc1C(c1ccccc1Cl)=NC2 : ____ 10.8

Looking for the measured Ca of CNC(=C[N+](=O)[O-])NCCSCc1ccc(CN(C)C)o1 , can you help? 10.7

----------
Property: ALP; scope: individual molecules
- Species: Rattus norvegicus
- run-description: Open TG-GATES - Regimen: Daily Repeat
- Assay type: toxicity, organism-based, Sprague-Dawley
- Design: regimen Daily Repeat, gender Male, age 6 weeks
- measurement-setup: in vivo, po, 100 mg/kg, 72 h, tissue Plasma, route gavage, dose level Low, time 3 day
State just the number; it will be interpreted in IU/L.

Check out these entries, answers already filled in.
[
  {
    "structure-notation": "COC(=O)C1=C(C)NC(C)=C(C(=O)OC)C1c1ccccc1[N+](=O)[O-]",
    "ALP / IU/L": 1508
  },
  {
    "structure-notation": "CNC(=C[N+](=O)[O-])NCCSCc1ccc(CN(C)C)o1",
    "ALP / IU/L": 970
  },
  {
    "structure-notation": "Cc1nnc2n1-c1ccc(Cl)cc1C(c1ccccc1Cl)=NC2",
    "ALP / IU/L": 1550.6
  },
  {
    "structure-notation": "CCOc1ccc(NC(C)=O)cc1",
    "ALP / IU/L": 1708.4
  },
  {
    "structure-notation": "CN/C(=N/CCSCc1nc[nH]c1C)NC#N",
    "ALP / IU/L": 1125.6
  }
]

Consider now this further molecule.
Looking for the measured ALP of O=C(OC[C@H]1O[C@@H](OC(=O)c2cc(O)c(O)c(OC(=O)c3cc(O)c(O)c(O)c3)c2)[C@H](OC(=O)c2cc(O)c(O)c(OC(=O)c3cc(O)c(O)c(O)c3)c2)[C@@H](OC(=O)c2cc(O)c(O)c(OC(=O)c3cc(O)c(O)c(O)c3)c2)[C@@H]1OC(=O)c1cc(O)c(O)c(OC(=O)c2cc(O)c(O)c(O)c2)c1)c1cc(O)c(O)c(OC(=O)c2cc(O)c(O)c(O)c2)c1 , can you help? 864

----------
Parameter AST: see the listing below.
- Species: Rattus norvegicus
- run-description: Open TG-GATES - Regimen: Daily Repeat
- Type: toxicity, organism-based, Sprague-Dawley
- Set-up: regimen Daily Repeat, gender Male, age 6 weeks
- measurement-setup: in vivo, po, 1000 mg/kg, […], tissue Plasma, route gavage, dose level High, time 14 day
Give the number; IU/L is assumed, so skip it.

Here's what some known entries look like.
[
  {
    "molecule": "O=C(OC[C@H]1O[C@@H](OC(=O)c2cc(O)c(O)c(OC(=O)c3cc(O)c(O)c(O)c3)c2)[C@H](OC(=O)c2cc(O)c(O)c(OC(=O)c3cc(O)c(O)c(O)c3)c2)[C@@H](OC(=O)c2cc(O)c(O)c(OC(=O)c3cc(O)c(O)c(O)c3)c2)[C@@H]1OC(=O)c1cc(O)c(O)c(OC(=O)c2cc(O)c(O)c(O)c2)c1)c1cc(O)c(O)c(OC(=O)c2cc(O)c(O)c(O)c2)c1 [TANNIC ACID]",
    "unit-abbreviation": "IU/L",
    "AST": 58.6
  },
  {
    "molecule": "COC(=O)C1=C(C)NC(C)=C(C(=O)OC)C1c1ccccc1[N+](=O)[O-] [NIFEDIPINE]",
    "unit-abbreviation": "IU/L",
    "AST": 66.6
  },
  {
    "molecule": "CCOc1ccc(NC(C)=O)cc1 [PHENACETIN]",
    "unit-abbreviation": "IU/L",
    "AST": 68
  },
  {
    "molecule": "CN/C(=N/CCSCc1nc[nH]c1C)NC#N [CIMETIDINE]",
    "unit-abbreviation": "IU/L",
    "AST": 62.2
  },
  {
    "molecule": "Cc1nnc2n1-c1ccc(Cl)cc1C(c1ccccc1Cl)=NC2 [TRIAZOLAM]",
    "unit-abbreviation": "IU/L",
    "AST": 71.6
  }
]

Query molecule follows.
Name the recorded AST for CNC(=C[N+](=O)[O-])NCCSCc1ccc(CN(C)C)o1 [RANITIDINE] . 62.8

----------
- Organism: Rattus norvegicus
- run-description: Open TG-GATES - Regimen: Daily Repeat
- Type: toxicity, organism-based, Sprague-Dawley
- Design: regimen Daily Repeat, gender Male, age 6 weeks
- measurement-setup: in vivo, po, 0 mg/kg, […], tissue Kidney, route gavage, dose level Control, time 14 day
Recorded measurements of KIDNEY_TOTAL, one per entry
Quick reminder: number only, in g, skip the unit.

[
  {
    "compound": "NC1=NC(=O)C(c2ccccc2)O1 (stereo not given)",
    "KIDNEY_TOTAL / g": 2.6
  },
  {
    "compound": "CN/C(=N/CCSCc1nc[nH]c1C)NC#N",
    "KIDNEY_TOTAL / g": 2.5
  },
  {
    "compound": "CN1C(=O)CCS(=O)(=O)C1c1ccc(Cl)cc1 (stereo not given)",
    "KIDNEY_TOTAL / g": 2.3
  }
]

// query KIDNEY_TOTAL value for entry CCCc1cc(=O)[nH]c(=S)[nH]1 2.2

Can you look up the measured KIDNEY_TOTAL of Nc1c2c(nc3ccccc13)CCCC2 for me? 2.3

----------
- Organism: Rattus norvegicus
- run-description: Open TG-GATES - Regimen: Single
- Type: toxicity, organism-based, Sprague-Dawley
- Design: regimen Single, gender Male, age 6 weeks
- measurement-setup: in vivo, po, 300 mg/kg, 24 h, tissue Plasma, route gavage, dose level Middle
Recorded DBIL values for a group of molecules are listed next.
State the answer as a number, implicitly in mg/dL.

Worked set:
[
  {
    "molecule": "COC(=O)C1=C(C)NC(C)=C(C(=O)OC)C1c1ccccc1[N+](=O)[O-] [NIFEDIPINE]",
    "DBIL [mg/dL]": 0.012
  },
  {
    "molecule": "O=C(OC[C@H]1O[C@@H](OC(=O)c2cc(O)c(O)c(OC(=O)c3cc(O)c(O)c(O)c3)c2)[C@H](OC(=O)c2cc(O)c(O)c(OC(=O)c3cc(O)c(O)c(O)c3)c2)[C@@H](OC(=O)c2cc(O)c(O)c(OC(=O)c3cc(O)c(O)c(O)c3)c2)[C@@H]1OC(=O)c1cc(O)c(O)c(OC(=O)c2cc(O)c(O)c(O)c2)c1)c1cc(O)c(O)c(OC(=O)c2cc(O)c(O)c(O)c2)c1 [TANNIC ACID]",
    "DBIL [mg/dL]": 0.002
  },
  {
    "molecule": "Cc1nnc2n1-c1ccc(Cl)cc1C(c1ccccc1Cl)=NC2 [TRIAZOLAM]",
    "DBIL [mg/dL]": 0.018
  },
  {
    "molecule": "CNC(=C[N+](=O)[O-])NCCSCc1ccc(CN(C)C)o1 [RANITIDINE]",
    "DBIL [mg/dL]": 0.086
  }
]

# lookup: DBIL of CN/C(=N/CCSCc1nc[nH]c1C)NC#N [CIMETIDINE] 0.09

----------
Below: a set of entries, each annotated with reported AST.
- Species on record: Rattus norvegicus
- run-description: Open TG-GATES - Regimen: Daily Repeat
- Format: toxicity, organism-based, Sprague-Dawley
- Parameters: regimen Daily Repeat, gender Male, age 6 weeks
- measurement-setup: in vivo, po, 300 mg/kg, […], tissue Plasma, route gavage, dose level Middle, time 14 day
Reply with just the number (in IU/L).

[
  {
    "structure-notation": "COC(=O)C1=C(C)NC(C)=C(C(=O)OC)C1c1ccccc1[N+](=O)[O-]",
    "unit-abbreviation": "IU/L",
    "AST": 69.4
  },
  {
    "structure-notation": "Cc1nnc2n1-c1ccc(Cl)cc1C(c1ccccc1Cl)=NC2",
    "unit-abbreviation": "IU/L",
    "AST": 73
  },
  {
    "structure-notation": "O=C(OC[C@H]1O[C@@H](OC(=O)c2cc(O)c(O)c(OC(=O)c3cc(O)c(O)c(O)c3)c2)[C@H](OC(=O)c2cc(O)c(O)c(OC(=O)c3cc(O)c(O)c(O)c3)c2)[C@@H](OC(=O)c2cc(O)c(O)c(OC(=O)c3cc(O)c(O)c(O)c3)c2)[C@@H]1OC(=O)c1cc(O)c(O)c(OC(=O)c2cc(O)c(O)c(O)c2)c1)c1cc(O)c(O)c(OC(=O)c2cc(O)c(O)c(O)c2)c1",
    "unit-abbreviation": "IU/L",
    "AST": 62.8
  },
  {
    "structure-notation": "CNC(=C[N+](=O)[O-])NCCSCc1ccc(CN(C)C)o1",
    "unit-abbreviation": "IU/L",
    "AST": 70.4
  },
  {
    "structure-notation": "CN/C(=N/CCSCc1nc[nH]c1C)NC#N",
    "unit-abbreviation": "IU/L",
    "AST": 65.8
  }
]

Attention now turns to another entry.
Please give the measured AST for this compound: CCOc1ccc(NC(C)=O)cc1 63
